Biological target: T1, His6-PhoP (Riemerella anatipestifer RA-YM, UniProt E4TAE7 2-228)
T1 sequence: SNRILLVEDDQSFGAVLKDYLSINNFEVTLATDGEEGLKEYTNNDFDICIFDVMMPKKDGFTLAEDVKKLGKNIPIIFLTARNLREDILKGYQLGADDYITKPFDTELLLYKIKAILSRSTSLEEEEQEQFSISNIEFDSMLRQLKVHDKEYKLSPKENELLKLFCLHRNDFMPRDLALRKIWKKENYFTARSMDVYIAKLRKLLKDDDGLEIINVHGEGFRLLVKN
Assay: EMSA; unphosphorylated
Details: protein: recombinant; tags: His6 (pET-28a); chain copies: 2; label: 5' biotin on strand 1; blunt
quantity_kind: Kd (nM)
Response body: numeric value in nM, unit text excluded.

• KYF39_00915 (transposase) probe (dsDNA) DNA 1: TGAAAATTTCAAATTTAACTAAAGCTTATAGCAAT DNA 2: ATTGCTATAAGCTTTAGTTAAATTTGAAATTTTCA = 29.8

Now consider the entry below.
Entry KYF39_00905 (transporter) probe (dsDNA) DNA 1: CAAAAAATATTTCATTAACAGAATAGACAATCATA DNA 2: TATGATTGTCTATTCTGTTAATGAAATATTTTTTG : reported Kd = ?
39.2
